# Substrate: c1ccc([C@@H]2CO2)cc1
# procedure text: purified protein
# Assay type: biochemical, Phanerodontia chrysosporium
# condition: 10-80 mM SO, 37 °C, buffer pH 8.0
measured attribute: Km (mM)
Just the number in mM, nothing appended.

Specify reported Km for the protein shown: PchEHA (epoxide hydrolase) (Phanerodontia chrysosporium; C108S/G14A/K291R) (protein, catalytic triad D105/H308/D277) MDASLFKDFKTSRAFNYHYFYSPAKGPRPTLFFLHGNPSVATDWAQIVPHFTSRGYGVLAPDMLGYGDTDKPTDPALYVSSGMCRNLVDLLDHEGLEKVIAIGHDWGSLSVSRLASYYPERVIAYAFLAASFIGPIPPIPFDAFLEYIKQQVGYELYGYWKFYSEPGLDQFVRDHLDTFLSILWPSDPAVWKTRLAPTGALKQSALEGWTAPLAPYITEEFKKHHVEVFNKNGFEAPACYYRIMTSGLQAEDDKQILPERAVPPKDAPVFFGAANKDYICIPALAYATFKRDEWKDHKITIKEYDADHWLILSHADQVSRDLEAWIEGFASGGQ
21.71
